Sourced from PubChem BioAssay (NCI)

System: SN12C renal
assay_name: NCI tumour cell line growth inhibition, 48 h
measurement_name: TGI

C=CC1(CBr)CCC(C(C)(C)Br)O1 (configuration not stated) : 33.1 µM
CC(=O)Oc1cccc2c1C(=O)C(Br)(Br)CCC2 : 19.7 µM
Cc1ccc(C2=Nc3ccccc3NC(=O)C2)cc1 : > 100 µM
COc1ccc(/C=C2\CNC/C(=C\c3ccc(OC)cc3)C2=O)cc1 : > 100 µM
O=[N+]([O-])c1cccc2nc3ccccc3c(NCCNCCO)c12 : 0.173 µM

Write TGI of `O=C1CNc2cc(N3CCN(c4cccc(C(F)(F)F)c4)CC3)ccc2N1` ; system used: SN12C renal > 100 µM

Fetch value of TGI on SN12C renal for `COc1cc(/C=C2\CCc3cc(OC)c(OC)cc3C2=O)cc(OC)c1` . 38.2 µM

Tell me TGI of `CCOC(=O)[C@@H](C)C[C@H](Cc1ccccc1)NC(=O)c1csc([C@@H](C[C@H](C(C)C)N(C)C(=O)[C@H](CCC(C)C)NC(=O)[C@H]2CCCCN2C)OC(C)=O)n1` when tested on SN12C renal. 4.59 µM

* * *

Test system: UACC-62 melanoma
assay_name: NCI tumour cell line growth inhibition, 48 h
measurement_name: TGI

COc1ccc(C=NC23CC4CC(CC(C4)C2)C3)cc1 : > 100 µM
O=C(N/N=C/c1cc(Br)cc(Br)c1[O-])c1ccccc1O.O=C(N/N=C/c1cc(Br)cc(Br)c1[O-])c1ccccc1O.[Mn+2] : 17.2 µM

Output TGI of `Cl.Fc1c[c-]c(-c2ccccn2)c(F)c1.[Pt].c1ccc([PH+](CC[PH+](c2ccccc2)c2ccccc2)c2ccccc2)cc1` 0.364 µM

Supply measured TGI of `CC(C)(C)C(=O)C(c1ccc(-c2cscn2)cc1)c1ccc(-c2cscn2)cc1` in your reply. > 71.4 µM

* * *

Test system: SK-OV-3 ovarian
assay_name: NCI tumour cell line growth inhibition, 48 h
measurement_name: GI50

Return reported GI50. Input compound: `CCCCC(=O)[O-].N.N.N.N.N.[Co+3].[O-][Cl+3]([O-])([O-])[O-]` > 100 µM

Look up and state reported GI50 for `CCc1ccc(CCC(=O)Nc2ncc(Cc3ccccc3)s2)o1` 2.81 µM

Please give the documented GI50 of `O=c1[nH]nc2c3c(cccc13)NC(CN1Cc3ccccc3C1)=N2` 3.11 µM

Please list GI50 recorded for the compound `Fc1ccc(-c2nnc3sc(-c4cccc(Cl)c4)nn23)cc1Cl` > 100 µM

Quick one: give measured GI50 for `c1ccc2[nH]c(-c3ccc(OCCCCCOc4ccc(-c5nc6ccccc6[nH]5)cc4)cc3)nc2c1` 6.39 µM

* * *

System: SF-539 CNS
assay_name: NCI tumour cell line growth inhibition, 48 h
measurement_name: TGI (µM)
Your answer should be a plain number; it is taken to be in µM.

Some solved entries appear below for comparison.
CC1(C)N=C(N)N=C(N)N1c1cccc(CCCCc2ccc(S(=O)(=O)F)cc2Cl)c1 : 20.1
CCN(CC)C(=S)N/N=C(\C)c1ccccc1O : 54.4
Cc1nc(NC(=S)Nc2ccc(F)cc2)sc1C(=O)NNC(=S)Nc1ccc(F)cc1 : 26.2
O=C(/C(Cl)=C/c1ccccc1)c1ccccc1 : 13.1
CCOC(=O)CC[C@@H](NC(=O)c1ccc(NCc2ccc3nc(OC)c(OC)nc3c2)cc1)C(=O)OCC : 45.8
O=C(COC(=O)c1ccccc1)c1ccc(Br)cc1 : 28.4
O=[N+]([O-])C(=C/C1CCCCC1)/C(=C\C1CCCCC1)[N+](=O)[O-] : 9.4
COc1ccc(C2c3cc4c(cc3OC(N3CCOCC3)C2C)OCO4)c(OC)c1 (stereo not drawn) : 9.64

Answer with the recorded TGI for the compound listed here: `O=C(c1ccco1)N1CCN(C(=O)c2ccco2)C1=S` 11.2

Report TGI, nothing else, for this compound: `COC(=O)c1ccc(NCC2=CC(=O)c3ccccc3C2=O)cc1` 63.6

Using the record for `O=Cc1[nH]c2ccccc2c1Br` , state its measured TGI. 34.5

* * *

Test system: HCC-2998 colon
assay_name: NCI tumour cell line growth inhibition, 48 h
measurement_name: TGI

O=C(N/N=C/c1cc(Br)cc(Br)c1[O-])c1ccccc1O.O=C(N/N=C/c1cc(Br)cc(Br)c1[O-])c1ccccc1O.[Mn+2] : 25.9 µM
O=C(Nc1cc(Cl)ccc1O)c1cccc(NC2=C(Cl)C(=O)N(Cc3ccccc3)C2=O)c1 : 32.1 µM

Return TGI (reported value) for this compound: `CCOc1cc2ncc(C#N)c(Nc3ccc(F)c(Cl)c3)c2cc1NC(=O)/C=C/CN(C)C` > 10 µM

Give me measured TGI, please, for this compound: `N#C[C@](CO)(NC(=O)OCc1ccccc1)C(F)F` > 100 µM

# return recorded TGI for entry C=CCC1(O)c2cccc(O)c2C(=O)c2cccc(O)c21 (stereo unspecified) 30.3 µM

* * *

Examples of molecules with documented GI50 follow.
System: K-562 leukemia
assay_name: NCI tumour cell line growth inhibition, 48 h

COc1ccc(C2=C(c3cn(C)c4ccccc34)C(=O)NC2=O)cc1OC : 4920 nM
O=C(N/N=C/c1ccc(O)cc1O)c1ccc(Nc2ccnc(C(F)(F)F)c2)cc1 : > 20700 nM
Cc1nc(Nc2ccc(F)c(Cl)c2)sc1C(=O)O : 2650 nM
COc1ccc(C(=O)/C=C/c2cc(C(=O)c3cc(OC)c(OC)c(OC)c3)ccc2OC)cc1 : 2860 nM
Cc1ccc(NS(=O)(=O)c2cc(C)ccc2C)cc1 : 761 nM

Now turn to the next molecule.
Tell me GI50 reported for `CCc1nc2ccc(Cc3ccc(C(=O)NO)cc3)cc2c(=O)n1CCc1ccccc1` 1020 nM

* * *

Measured TGI values are reported for all entries that follow.
System: OVCAR-8 ovarian
assay_name: NCI tumour cell line growth inhibition, 48 h

c1ccc2[nH]c(-c3ccc(OCCCCCOc4ccc(-c5nc6ccccc6[nH]5)cc4)cc3)nc2c1 : 11.6 µM
COc1ccc(/C=N/n2c(Cc3ccc(Cl)cc3)n[nH]c2=O)cc1 : 74.6 µM
COc1cc2c(cc1OC)[C@@H](C(O)c1ccccc1)NCC2 (some centres undefined) : > 100 µM
CCOC(=O)NC(=O)c1cn(CCCOC(=O)CCCCCCCCC(=O)OCCCn2cc(C(=O)NC(=O)OCC)c(=O)[nH]c2=O)c(=O)[nH]c1=O : > 100 µM

Provide TGI, recorded with OVCAR-8 ovarian, of `NC(=O)C1=C(c2ccccc2)c2ccccc2C1=O` 31 µM

Identify measured TGI obtained with OVCAR-8 ovarian for `O=C(CN=C(CN(c1ccccc1)c1ccccc1)Oc1c([N+](=O)[O-])cc([N+](=O)[O-])cc1[N+](=O)[O-])N1CCNCC1` . > 100 µM

For OVCAR-8 ovarian, give TGI of the listed molecule: `N#CC1(c2nc3ccccc3o2)C(=O)C(=O)N(c2ccc(Cl)c(Cl)c2)C(=O)C1=O` > 100 µM

Please report the measured TGI for `CC(C)(N=NC(C)(C)C1=NCCN1)C1=NCCN1` tested on OVCAR-8 ovarian. > 100 µM

Recall the reported TGI of `CN(/N=N/c1nc(OCc2ccccc2)c2[nH]cnc2n1)C(=O)N(C)/N=N/c1nc(OCc2ccccc2)c2[nH]cnc2n1` on OVCAR-8 ovarian and write it down. > 100 µM

* * *

Test system: MOLT-4 leukemia
assay_name: NCI tumour cell line growth inhibition, 48 h
# maps each entry to its TGI

Known TGI results, listed for orientation:
CNS(=O)(=O)NN(C)S(=O)(=O)c1ccc(Br)cc1 : > 100 µM
C=CCC1(O)c2cccc(O)c2C(=O)c2cccc(O)c21 (stereo unspecified) : 53.6 µM
CO/N=C1/C(n2[nH]c(=O)n(-c3ccccc3)c2=O)C2C=CC1n1c(=O)n(-c3ccccc3)c(=O)n12 (stereo unspecified) : > 100 µM
Cc1cc2c(c(C#N)c1C)NC(=O)C(CC(=O)O)C2=O (stereo unspecified) : > 100 µM
O/N=C1\CC2(N3CCOCC3)CCC1(Cc1ccccc1)CC2 : > 100 µM

Provide the reported TGI (system: MOLT-4 leukemia) for COC(=O)c1cc(C)ccc1CC(Cc1ccccc1C)C(=O)OC (stereo unspecified) 24.7 µM

* * *

Tested on: SF-539 CNS
assay_name: NCI tumour cell line growth inhibition, 48 h; in the data active = GI50 below about 0.43 µM; inactive = the rest
*1 amine or outer side, *2 acyl side, *3 side chain or, on linkers, in order; H or OH if unused. Where a SMILES comes first, the peptide text is derived from it. Bridges are numbered along the chain shown (N, C = ends). [ ]: non-standard residue; d: D form. The star is where a group is joined. Phe(3-Me) = Cc1cccc(C[C@H](N)C(=O)O)c1; NH(4-Cl-2-F-phenyl) = Fc1cc(Cl)ccc1N*; Pro(4R-Me) = C[C@H]1CN[C@H](C(=O)O)C1; Hyp = O=C(O)[C@@H]1C[C@@H](O)CN1; aThr = C[C@H](O)[C@H](N)C(=O)O; Pip = O=C(O)[C@@H]1CCCCN1; CO = O=C([*:1])[*:2]
// one of active, inactive, no free text

N#CSCC1CC(O)(c2ccccc2)C(c2ccccc2)C(c2ccc(F)cc2)O1 (stereo not given) : inactive
CCCCC(=O)[O-].N.N.N.N.N.[Co+3].[O-][Cl+3]([O-])([O-])[O-] : inactive
C[C@@H]1CCN(C(=O)CC#N)C[C@@H]1N(C)c1ncnc2[nH]ccc12 : inactive
Cc1cc2c(C(N)=O)cccc2n1-c1nc2c(c(NCc3ccccc3)n1)CCCN2 : active
Cc1nn2c(/C=C3/C(=O)Nc4ccc(Cl)cc43)c(-c3ccccc3)nc2s1 : inactive

Check the results log: what was the call for Cc1cccc(C[C@H](NC(=O)Nc2ccc(Cl)cc2F)C(=O)N[C@@H]2C(=O)N3C[C@H](O)C[C@H]3C(=O)N3CCCC[C@H]3C(=O)N[C@@H](C)C(=O)N3C[C@H](C)C[C@H]3C(=O)O[C@H]2C)c1 ({NH(4-Cl-2-F-phenyl)-CO}-[Phe(3-Me)][aThr][Hyp][Pip]A[Pro(4R-Me)]; ester 2-C) ? inactive

Which outcome did this test record for the compound `O=C(N/N=C/c1ccc(O)cc1O)c1ccc(Nc2ccnc(C(F)(F)F)c2)cc1` ? inactive

Identify the outcome logged in this assay for the compound shown: `COc1ccc(/C=C(\C#N)c2cc(OC)c3c(c2)OCO3)cc1` active

Could you kindly confirm the outcome this assay logged for `CC1(C)N=C(N)N=C(N)N1c1cccc(CCCCc2ccc(S(=O)(=O)F)cc2Cl)c1` ? inactive

What call does the record list for `O=C(Nc1ccncc1)C(=O)c1cn(S(=O)(=O)c2ccccc2F)c2ccccc12` ? inactive
